Recorded values, source patent US5428058A.

Biological target: 5-lipoxygenase (Mus musculus, UniProt P48999)
Construct: Resident peritoneal macrophages were collected from female Swiss Webster mice; endogenous in cells
Sequence (P48999 whole entry): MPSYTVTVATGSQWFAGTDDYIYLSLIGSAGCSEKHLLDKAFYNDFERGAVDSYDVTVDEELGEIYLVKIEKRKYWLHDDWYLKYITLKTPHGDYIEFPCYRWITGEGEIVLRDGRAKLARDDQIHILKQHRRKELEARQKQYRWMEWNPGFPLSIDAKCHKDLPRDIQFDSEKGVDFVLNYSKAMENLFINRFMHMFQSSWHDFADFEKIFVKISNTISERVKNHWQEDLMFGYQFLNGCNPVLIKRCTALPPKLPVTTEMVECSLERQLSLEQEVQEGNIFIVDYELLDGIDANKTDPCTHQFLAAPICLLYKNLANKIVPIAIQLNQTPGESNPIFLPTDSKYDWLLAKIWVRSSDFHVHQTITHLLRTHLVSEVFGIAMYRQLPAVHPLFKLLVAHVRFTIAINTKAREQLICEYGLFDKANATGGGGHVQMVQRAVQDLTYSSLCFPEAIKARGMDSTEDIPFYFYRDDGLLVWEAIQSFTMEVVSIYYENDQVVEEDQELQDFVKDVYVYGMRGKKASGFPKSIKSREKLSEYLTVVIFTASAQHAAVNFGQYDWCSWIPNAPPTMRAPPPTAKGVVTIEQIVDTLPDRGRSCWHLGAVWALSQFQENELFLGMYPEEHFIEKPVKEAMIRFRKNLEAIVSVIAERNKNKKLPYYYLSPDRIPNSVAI
Assay: 5-lipoxygenase inhibition (LTC4 production) in resident murine peritoneal macrophages
Recorded metric: IC50

> print(dat)
                                   compound  result
1  CCCCCC#CCC#CCC#CCC#CCCCC(=O)O [ETYA, reference compound]  440 nM
